Reference source: patent US11834453B2

biological target: EGFR (Homo sapiens (Human), UniProt P00533)
Sequence (P00533 25-1210): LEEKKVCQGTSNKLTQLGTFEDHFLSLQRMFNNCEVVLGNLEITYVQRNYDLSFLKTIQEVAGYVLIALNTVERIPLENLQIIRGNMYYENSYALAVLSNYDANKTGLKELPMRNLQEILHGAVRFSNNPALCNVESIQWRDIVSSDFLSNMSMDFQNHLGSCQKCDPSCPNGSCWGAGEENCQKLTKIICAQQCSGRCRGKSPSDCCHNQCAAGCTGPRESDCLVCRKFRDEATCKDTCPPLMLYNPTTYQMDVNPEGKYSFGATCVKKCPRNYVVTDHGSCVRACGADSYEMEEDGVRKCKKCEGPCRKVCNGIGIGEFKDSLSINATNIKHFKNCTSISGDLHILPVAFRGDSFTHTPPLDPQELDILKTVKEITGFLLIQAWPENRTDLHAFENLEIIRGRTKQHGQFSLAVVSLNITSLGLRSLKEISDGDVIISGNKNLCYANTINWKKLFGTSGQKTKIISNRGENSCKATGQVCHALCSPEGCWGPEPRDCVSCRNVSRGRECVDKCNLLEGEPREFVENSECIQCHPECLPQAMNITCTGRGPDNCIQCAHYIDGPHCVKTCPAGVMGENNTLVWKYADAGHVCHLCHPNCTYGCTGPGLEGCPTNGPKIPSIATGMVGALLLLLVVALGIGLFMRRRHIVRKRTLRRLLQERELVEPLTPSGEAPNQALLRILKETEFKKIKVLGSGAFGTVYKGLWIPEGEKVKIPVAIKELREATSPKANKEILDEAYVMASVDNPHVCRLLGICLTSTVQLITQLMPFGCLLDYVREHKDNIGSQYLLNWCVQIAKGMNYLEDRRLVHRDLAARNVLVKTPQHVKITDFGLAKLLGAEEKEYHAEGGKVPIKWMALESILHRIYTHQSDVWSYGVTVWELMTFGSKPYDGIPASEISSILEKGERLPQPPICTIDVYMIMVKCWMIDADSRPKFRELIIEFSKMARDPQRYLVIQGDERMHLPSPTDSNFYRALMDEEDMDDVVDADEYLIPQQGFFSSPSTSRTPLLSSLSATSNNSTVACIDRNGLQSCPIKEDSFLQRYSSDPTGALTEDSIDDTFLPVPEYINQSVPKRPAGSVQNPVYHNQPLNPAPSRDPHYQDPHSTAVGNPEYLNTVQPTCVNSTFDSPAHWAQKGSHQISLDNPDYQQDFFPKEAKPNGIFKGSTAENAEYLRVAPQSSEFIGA
pIC50: −log10 of the molar value.

| Molecule | pIC50 |
| --- | --- |
| Cc1cc(Nc2ncnc3cnc(N4C[C@@H]5CCCN5C4=O)nc23)ccc1Oc1ccc2c(c1)ncn2C [Example 254] | ≤ 5.00 |
| Cc1cc(Nc2ncnc3cnc(N(C)CC(O)C(F)(F)F)nc23)ccc1Oc1ccc2c(c1)ncn2C (stereo not drawn) [Example 188] | ≤ 5.00 |
| Cc1cc(Nc2ncnc3cnc(N4CC(OC(F)F)C4)nc23)ccc1Oc1ccc2c(c1)ncn2C [Example 244] | ≤ 5.00 |
| Cc1cc(Nc2ncnc3cnc(N4CCC5(CCO5)CC4)nc23)ccc1Oc1ccc2c(c1)ncn2C [Example 345] | ≤ 5.00 |
| Cc1cc(Nc2ncnc3cnc(N4CCC[C@@](C)(O)C4)nc23)c(F)cc1Oc1ccc2c(c1)ncn2C [Example 218] | ≤ 5.00 |
| Cc1cc(Nc2ncnc3cnc(N4CC[C@](C)(O)C4)nc23)ccc1Oc1ccn2ncnc2c1 [Example 365] | 5.12 |
| Cc1c(Oc2ccc3c(c2)ncn3C)ccc(Nc2ncnc3cnc(N(C)CC(C)(C)O)nc23)c1F [Example 438] | ≤ 5.00 |
| Cc1cc(Nc2ncnc3cnc(N(C)C4COC4)nc23)ccc1Oc1ccc2c(c1)ncn2C [Example 175] | 5.19 |
| Cc1cc(Nc2ncnc3cnc(N[C@H]4CN(C)C[C@H]4F)nc23)ccc1Oc1ccc2c(c1)ncn2C [Example 279] | 5.39 |
| Cc1cc(Nc2ncnc3cnc(N4C[C@H]5C[C@@H]4C[C@@H]5O)nc23)ccc1Oc1ccc2c(c1)ncn2C [Example 157] | ≤ 5.00 |
| CSc1ncc2ncnc(Nc3ccc(Oc4ccc5csnc5c4)c(C)c3)c2n1 [Example 11, 2,2,2-trifluoroacetate] | 6.03 |
| Cc1cc(Nc2ncnc3cnc(N4CC(C)(O)C4)nc23)ccc1Oc1ccc2c(c1)ncn2C [Example 246] | ≤ 5.00 |
